Quick reference for MIC among some compounds
- System: Klebsiella pneumoniae PCI 602
- run.description: Minimum inhibitory concentration, serial dilution on nutrient agar
- Type: cell-based
- cond: PCI602, 37°C, 18 hours, read-out: Minimum Inhibitory Concentration
Return type: number; implicit unit µg/mL.

Worked examples, 3 compounds total:
NCC(O)C(=O)N[C@@H]1C[C@H](N)[C@@H](O[C@H]2O[C@H](CN)[C@@H](O)[C@H](O)[C@H]2O)[C@H](O)[C@H]1O[C@H]1O[C@H](CO)[C@@H](O)[C@H](N)[C@H]1O (mixture of isomers) [1-IS-KM, 1-N-DL-isoserylkanamycin] | 0.39
NC[C@@H]1CC[C@@H](N)[C@@H](O[C@H]2[C@H](O)[C@@H](O[C@H]3O[C@H](CO)[C@@H](O)[C@H](N)[C@H]3O)[C@H](N)C[C@@H]2N)O1 [DKB, 3',4'-dideoxykanamycin B, reference compound] | 0.39
NCC(O)C(=O)N[C@@H]1C[C@H](N)[C@@H](O[C@H]2O[C@H](CN)CC[C@H]2N)[C@H](O)[C@H]1O[C@H]1O[C@H](CO)[C@@H](O)[C@H](N)[C@H]1O (mixture of isomers) [1-IS-DKB, 1-N-DL-isoseryl-3',4'-dideoxykanamycin B] | 0.39

# next compound below
Param item = NCC(O)C(=O)N[C@@H]1C[C@H](N)[C@@H](O[C@H]2O[C@H](CN)[C@@H](O)[C@H](O)[C@H]2N)[C@H](O)[C@H]1O[C@H]1O[C@H](CO)[C@@H](O)[C@H](N)[C@H]1O (mixture of isomers) [1-IS-KMB, 1-N-DL-isoserylkanamycin B] ; retrieve measured MIC. 0.78

---

Quick reference for MIC among some compounds
- System: Bacillus cereus ATCC 10702
- run.description: Minimum inhibitory concentration, serial dilution on nutrient agar
- Assay type: cell-based
- cond: ATCC10702, 37°C, 18 hours, read-out: Minimum Inhibitory Concentration
Give the figure together with its unit, number first.

Worked examples, 3 compounds total:
NCC(O)C(=O)N[C@@H]1C[C@H](N)[C@@H](O[C@H]2O[C@H](CN)[C@@H](O)[C@H](O)[C@H]2O)[C@H](O)[C@H]1O[C@H]1O[C@H](CO)[C@@H](O)[C@H](N)[C@H]1O (mixture of isomers) [1-IS-KM, 1-N-DL-isoserylkanamycin] | 0.78 µg/mL
NC[C@@H]1CC[C@@H](N)[C@@H](O[C@H]2[C@H](O)[C@@H](O[C@H]3O[C@H](CO)[C@@H](O)[C@H](N)[C@H]3O)[C@H](N)C[C@@H]2N)O1 [DKB, 3',4'-dideoxykanamycin B, reference compound] | 0.78 µg/mL
NCC(O)C(=O)N[C@@H]1C[C@H](N)[C@@H](O[C@H]2O[C@H](CN)CC[C@H]2N)[C@H](O)[C@H]1O[C@H]1O[C@H](CO)[C@@H](O)[C@H](N)[C@H]1O (mixture of isomers) [1-IS-DKB, 1-N-DL-isoseryl-3',4'-dideoxykanamycin B] | 1.56 µg/mL

# next compound below
Hi! What's the reported MIC for NCC(O)C(=O)N[C@@H]1C[C@H](N)[C@@H](O[C@H]2O[C@H](CN)[C@@H](O)[C@H](O)[C@H]2N)[C@H](O)[C@H]1O[C@H]1O[C@H](CO)[C@@H](O)[C@H](N)[C@H]1O (mixture of isomers) [1-IS-KMB, 1-N-DL-isoserylkanamycin B] on Bacillus cereus ATCC 10702? 1.56 µg/mL

---

Endpoint: MIC. System: Escherichia coli LA290 R56. Items follow.

Worked examples, 3 molecules total:
NC[C@H]1O[C@H](O[C@H]2[C@H](O)[C@@H](O[C@H]3O[C@H](CO)[C@@H](O)[C@H](N)[C@H]3O)[C@H](N)C[C@@H]2N)[C@H](N)[C@@H](O)[C@@H]1O [KMB, kanamycin B, reference compound] | 3.13 µg/mL
NCC(O)C(=O)N[C@@H]1C[C@H](N)[C@@H](O[C@H]2O[C@H](CN)CC[C@H]2N)[C@H](O)[C@H]1O[C@H]1O[C@H](CO)[C@@H](O)[C@H](N)[C@H]1O (mixture of isomers) | 0.39 µg/mL
NCC(O)C(=O)N[C@@H]1C[C@H](N)[C@@H](O[C@H]2O[C@H](CN)[C@@H](O)[C@H](O)[C@H]2N)[C@H](O)[C@H]1O[C@H]1O[C@H](CO)[C@@H](O)[C@H](N)[C@H]1O (mixture of isomers) | 0.78 µg/mL

Param item = NC[C@@H]1CC[C@@H](N)[C@@H](O[C@H]2[C@H](O)[C@@H](O[C@H]3O[C@H](CO)[C@@H](O)[C@H](N)[C@H]3O)[C@H](N)C[C@@H]2N)O1 [DKB, 3',4'-dideoxykanamycin B, reference compound] ; retrieve measured MIC. 12.5 µg/mL

Param item = `NC[C@H]1O[C@H](O[C@H]2[C@H](O)[C@@H](O[C@H]3O[C@H](CO)[C@@H](O)[C@H](N)[C@H]3O)[C@H](N)C[C@@H]2N)[C@H](O)[C@@H](O)[C@@H]1O` ; retrieve measured MIC. 12.5 µg/mL

Param item = NCC(O)C(=O)N[C@@H]1C[C@H](N)[C@@H](O[C@H]2O[C@H](CN)[C@@H](O)[C@H](O)[C@H]2O)[C@H](O)[C@H]1O[C@H]1O[C@H](CO)[C@@H](O)[C@H](N)[C@H]1O (mixture of isomers) ; retrieve measured MIC. 0.78 µg/mL

Data provenance: patent US3939143A
